# Assay name: in vivo
# Condition description: female, Sprague-Dawley, rat, po, 10 mg/kg, Raloxifene AUC0-8
Reported metric: AUC(0-t) (ng·h/mL)

>>> value_reported("O=C(c1ccc(OCCN2CCCCC2)cc1)c1c(-c2ccc(O)cc2)sc2cc(O)ccc12 [Raloxifene, raloxifene, reference compound]")
77

----------
# Tested on: UGT enzymes of human liver microsomes
# Assay name: Inhibition of raloxifene glucuronidation (G1, G2) in human liver microsomes
# Type: biochemical
# Condition description: raloxifene 50 μM; inhibitor 100 μM
Reported metric: % of control metabolism, raloxifene G1

>>> value_reported("O=C(O[C@@H]1Cc2c(O)cc(O)cc2O[C@H]1c1cc(O)c(O)c(O)c1)c1cc(O)c(O)c(O)c1 [Gallocatechin gallate]")
"20 (1) %"
>>> value_reported("CC/C(=C(/CC)c1ccc(O)cc1)c1ccc(O)cc1 [Diethylstilbestrol, reference compound]")
"8 (0) %"
>>> value_reported("O=C(O[C@@H]1Cc2c(O)cc(O)cc2O[C@@H]1c1cc(O)c(O)c(O)c1)c1cc(O)c(O)c(O)c1 [Epigallocatechin gallate]")
"22 (1) %"
>>> value_reported("CCCCCCCCOC(=O)c1cc(O)c(O)c(O)c1 [Octyl gallate]")
"31 (3) %"

----------
% of control metabolism (SD, n = 3), raloxifene glucuronide G1 by entry:
# Test system: UGT enzymes of human liver microsomes
# Assay name: Inhibition of raloxifene glucuronidation (G1, G2) in human liver microsomes
# Assay type: biochemical
# Condition description: G1; inhibitor 500 μM; raloxifene 50 μM, human liver microsomes 250 μg/ml, 15 min
# Source text: Compounds were eluted using a binary solvent gradient system. […] Solvent B was methanol. […] Detection was at 280 nm.
Reported metric: % of control metabolism (SD, n = 3), raloxifene glucuronide G1

>>> value_reported("CC1=C(CC(=O)O)c2cc(F)ccc2/C1=C\\c1ccc([S+](C)[O-])cc1 (stereo not drawn)")
"25 (3) %"
>>> value_reported("O=c1c(O)c(-c2ccc(O)c(O)c2)oc2cc(O)cc(O)c12")
"0 (0) %"
>>> value_reported("Oc1cc(O)c2c(c1)O[C@H](c1cc(O)c(O)c(O)c1)[C@H](O)C2 [Epigallocatechin]")
"65 (4) %"
>>> value_reported("C[C@]12CC[C@@H]3c4ccc(O)cc4CC[C@H]3[C@@H]1C[C@@H](O)[C@@H]2O")
"46 (3) %"
>>> value_reported("C#C[C@]1(O)CC[C@H]2[C@@H]3CCc4cc(O)ccc4[C@H]3CC[C@@]21C [17-α-Ethinylestradiol, 17-α-ethinylestradiol, reference compound]")
"2 (0) %"
>>> value_reported("COc1c(C)c2c(c(O)c1C/C=C(\\C)CCC(=O)O)C(=O)OC2 [Mycophenolic acid, reference compound]")
"43 (5) %"
>>> value_reported("COc1cc(CNC(=O)CCCCCCC(C)C)ccc1O [Dihydrocapsaicin]")
"18 (1) %"
>>> value_reported("CCCCC/C=C\\C/C=C\\CCCCCCCC(=O)O")
"29 (0) %"
>>> value_reported("C[C@]12CC[C@@H]3c4ccc(O)cc4CC[C@H]3[C@@H]1CC[C@@H]2O [E2, 17-β-estradiol, reference compound]")
"39 (1) %"

----------
# Tested on: UGT enzymes of human liver microsomes
# Assay name: Inhibition of raloxifene glucuronidation (G1, G2) in human liver microsomes
# Assay type: biochemical
# Condition description: raloxifene 50 μM; inhibitor 100 μM
Reported metric: % of control metabolism, raloxifene G2

>>> value_reported("CCCOC(=O)c1cc(O)c(O)c(O)c1 [Propyl gallate]")
"52 (3) %"
>>> value_reported("CCCCCCCCOC(=O)c1cc(O)c(O)c(O)c1 [Octyl gallate]")
"52 (7) %"
>>> value_reported("O=C(O[C@@H]1Cc2c(O)cc(O)cc2O[C@@H]1c1ccc(O)c(O)c1)c1cc(O)c(O)c(O)c1 [Epicatechin gallate]")
"24 (2) %"
